Where do the numbers come from? From patent US11214803B2.

# Method description: Tolerability in Sprague-Dawley rats, plasma chemistry markers (Example 21)
# Format: in vivo
# Assay context: male Sprague-Dawley rats, 50 mg/kg s.c. weekly for 6 weeks (7 doses), 48 hours after last dose
Marks after values point to notes of the source that are not given here. Strand notation (5' to 3'): a small letter for the sugar, then the base; units joined by * are phosphorothioate-linked, units joined directly phosphodiester-linked; [ ] holds rarer units or linkages, { } end groups; capitals alone tell only the bases. e = 2'-O-(2-methoxyethyl) (MOE); k = constrained ethyl (cEt); [5mC] = 5-methylcytosine; d = 2'-deoxy (DNA)
Experimental readout: TBIL

Challenge: Give the value of TBIL reported for the following: 1198440 (AAGTGTATGTCAGAAG; cEt, 2'-MOE, 5-methylcytosine, phosphorothioate modifications, further chemistry not given here) [compound 1198440]
Response given: 0.17** mg/dL

Challenge: Give the value of TBIL reported for the following: 1198439 (AGTGTATGTCAGAAGA; sugar, 5-methylcytosine, phosphorothioate modifications, further chemistry not given here) [compound 1198439]
Response given: 0.15* mg/dL

Challenge: Give the value of TBIL reported for the following: 1198873 (kA*kG*dT*dG*dT*dA*dT*dG*dT*d[5mC]*dA*kG*eA*kA*eG*kA; antisense) [compound 1198873]
Response given: 0.17* mg/dL

Challenge: Give the value of TBIL reported for the following: 1074756 (kG*k[5mC]*kA*d[5mC]*dT*dT*dT*dT*dA*d[5mC]*dA*dT*dT*kA*kG*kG) [compound 1074756]
Response given: 0.10* mg/dL
